- TARGET_OF_ASSAY: HDAC enzyme
- ASSAY_METHOD_TEXT: Inhibition of Histone Deacetylase Enzymatic Activity (Assay Examples 1 and 2)
- Format: biochemical
- EXPERIMENTAL_CONTEXT: HDAC isoform not specified; fluorogenic Boc-Lys(Ac)-AMC or Boc-Lys(trifluoroacetyl)-AMC substrate
pIC50: −log10 of the molar value.
MEASURED_PARAMETER: pIC50

INSERT INTO results (molecule, target_of_assay, result) VALUES
  ('COc1ccc(-c2nc([C@H](CCCCNS(N)(=O)=O)NC(=O)OCc3ccccc3)c[nH]2)cc1 [Compound 327]', 'HDAC enzyme', '≥ 6.70'),
  ('NS(=O)(=O)NCCCC[C@H](NC(=O)NCc1ccc(F)cc1)C(=O)Nc1nc(-c2ccccc2)cs1 [Compound 240]', 'HDAC enzyme', '6.30 to 6.70');

What value of measured pIC50 is listed for NS(=O)(=O)NCCCC[C@H](NC(=O)c1cccc2cccnc12)C(=O)Nc1cccc2cccnc12 [Compound 209] ?
6.30 to 6.70

What value of measured pIC50 is listed for NS(=O)(=O)NCCCC[C@H](NC(=O)OCc1ccccc1)c1n[nH]c(-c2ccccc2)n1 [Compound 335] ?
≥ 6.70

What value of measured pIC50 is listed for COc1ccc2[nH]c(C)c(CC(=O)N[C@@H](CCCCNS(N)(=O)=O)C(=O)Nc3cccc4cccnc34)c2c1 [Compound 62] ?
6.30 to 6.70

What value of measured pIC50 is listed for NS(=O)(=O)NCCCC[C@H](NC(=O)NCc1ccccc1)C(=O)Nc1cccc2cccnc12 [Compound 203] ?
6.30 to 6.70

What value of measured pIC50 is listed for COc1cc(NC(=O)[C@H](CCCCNS(N)(=O)=O)NC(=O)OCc2ccccc2)c2ncccc2c1 [Compound 270] ?
≥ 6.70

What value of measured pIC50 is listed for COc1cc(NC(=O)CCCCCNS(N)(=O)=O)c2ncccc2c1 [Compound 40] ?
≥ 6.70

What value of measured pIC50 is listed for CC(=O)N[C@@H](CCCCNS(N)(=O)=O)C(=O)Nc1cccc2cccnc12 [Compound 34] ?
≥ 6.70

What value of measured pIC50 is listed for Cc1ccc(-c2nc([C@H](CCCCNS(N)(=O)=O)NC(=O)OCc3ccccc3)c[nH]2)cc1 [Compound 348] ?
6.30 to 6.70

What value of measured pIC50 is listed for NS(=O)(=O)NCCCCCC(=O)Nc1cccc(-c2ccccc2)c1 [Compound 4] ?
≥ 6.70

What value of measured pIC50 is listed for NS(=O)(=O)NCCCC[C@H](NC(=O)OCc1ccccc1)C(=O)Nc1nc(-c2ccccc2)cs1 [Compound 60] ?
≥ 6.70

What value of measured pIC50 is listed for NS(=O)(=O)NCCCC[C@H](NC(=O)Cc1ccccc1)C(=O)Nc1nc(-c2ccccc2)cs1 [Compound 230a] ?
≥ 6.70

What value of measured pIC50 is listed for CCOC(=O)N[C@@H](CCCCNS(N)(=O)=O)C(=O)Nc1nc(-c2ccccc2)cs1 [Compound 252] ?
6.30 to 6.70

What value of measured pIC50 is listed for NS(=O)(=O)NCCCC[C@H](NC(=O)OCc1ccccc1)C(=O)Nc1cccc(-c2ccccc2)c1 [Compound 310] ?
≥ 6.70

What value of measured pIC50 is listed for COC(=O)N[C@@H](CCCCNS(N)(=O)=O)C(=O)Nc1nc(-c2ccccc2)cs1 [Compound 319] ?
≥ 6.70

What value of measured pIC50 is listed for NS(=O)(=O)NCCCC[C@H](NC(=O)OCc1ccccc1)C(=O)Nc1cccc2cccnc12 [Compound 55] ?
≥ 6.70
